Hey, just so you know, these numbers are from ChEMBL document CHEMBL4715832.

system: liver microsomes (Mus musculus); assay: Stability in mouse liver microsomes assessed as parent compound remaining at 2 uM measured after 10 mins in presence of cofactor; details: read-out: Stabilty
value_type: remaining at 10 min, 2 µM (%)
// return numeric value only (unit: %, not printed)

input: For the compound shown here, COc1cc2c(-c3cc(OC)c(OC)c(OC)c3)nccc2cc1O , give the reported remaining at 10 min, 2 µM.
output: 93

---

tested on: HeLa; test: Induction of microtubule network depolymerization in human HeLa cells after 24 hrs by immunofluorescence staining based confocal microscopic analysis; assay type: cell-based
Activity calls are given as the source filed them. No cut-off for these calls is given here.
value_type: Activity

Reference set (5 entries):
>>> meas_value("COc1cc2ccnc(-c3cc(OC)c(OC)c(OC)c3)c2cc1OC")
"Dose-dependent effect"
>>> meas_value("COc1cc2c(-c3cc(OC)c(OC)c(OC)c3)nccc2cc1OP(=O)([O-])[O-].[Na+].[Na+]")
"Dose-dependent effect"
>>> meas_value("COc1ccc2ccnc(-c3cc(OC)c(OC)c(OC)c3)c2c1")
"Dose-dependent effect"
>>> meas_value("COc1cc2c(-c3cc(OC)c(OC)c(OC)c3)nccc2cc1F")
"Dose-dependent effect"
>>> meas_value("COc1ccc2cc[n+](C)c(-c3cc(OC)c(OC)c(OC)c3)c2c1")
"inactive"

input: For the molecule shown here, COc1cc(-c2nccc3cc4c(cc23)OCO4)cc(OC)c1OC , give the reported Activity.
output: inactive

---

assay: Solubility of compound in aqueous buffer; format: physicochemical
value_type: solubility

input: For the compound shown here, COc1cc2c(-c3cc(OC)c(OC)c(OC)c3)nccc2cc1OP(=O)([O-])[O-].[Na+].[Na+] , give the reported solubility.
output: > 10 mM

---

molecular target: hERG (KCNH2) (Homo sapiens); experiment: Inhibition of human ERG at 5 uM by fluorescence polarization assay relative to control
value_type: inhibition at 5 µM (%)
// return numeric value only (unit: %, not printed)

input: Return inhibition at 5 µM measured with hERG (KCNH2) (Homo sapiens) given this compound: COc1cc2c(-c3cc(OC)c(OC)c(OC)c3)nccc2cc1O
output: -18

---

test system: liver microsomes (Mus musculus); assay: Half life in mouse liver microsomes at 2 uM
value_type: half-life at 2 µM

input: For the compound shown here, COc1cc2c(-c3cc(OC)c(OC)c(OC)c3)nccc2cc1O , give the reported half-life at 2 µM.
output: 1.12 h

---

test: Stability in human liver microsomes assessed as parent compound remaining at 2 uM measured after 40 mins in absence of cofactor; format: ADME, Microsome; details: read-out: Stabilty
value_type: remaining at 40 min, 2 µM (%)
// return numeric value only (unit: %, not printed)

input: For the molecule shown here, COc1cc2c(-c3cc(OC)c(OC)c(OC)c3)nccc2cc1O , give the reported remaining at 40 min, 2 µM.
output: 98

---

molecular target: CYP2C19 (Homo sapiens, UniProt P33261); assay: Inhibition of human CYP2C19 at 10 uM relative to control; assay type: ADME
Sequence (P33261 whole entry): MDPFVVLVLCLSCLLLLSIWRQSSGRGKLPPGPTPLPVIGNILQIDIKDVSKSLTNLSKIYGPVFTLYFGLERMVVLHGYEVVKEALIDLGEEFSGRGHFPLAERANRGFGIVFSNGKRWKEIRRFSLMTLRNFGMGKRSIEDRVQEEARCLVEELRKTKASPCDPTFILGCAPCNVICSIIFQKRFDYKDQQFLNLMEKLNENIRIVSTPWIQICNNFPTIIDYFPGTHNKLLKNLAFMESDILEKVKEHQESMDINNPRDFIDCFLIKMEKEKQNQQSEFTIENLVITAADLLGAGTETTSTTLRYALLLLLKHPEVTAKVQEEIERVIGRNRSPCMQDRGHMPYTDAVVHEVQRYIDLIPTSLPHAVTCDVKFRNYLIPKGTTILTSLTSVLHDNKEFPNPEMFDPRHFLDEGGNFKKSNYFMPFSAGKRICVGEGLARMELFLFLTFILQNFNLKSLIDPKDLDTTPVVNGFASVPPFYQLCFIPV
value_type: inhibition at 10 µM (%)
// return numeric value only (unit: %, not printed)

input: Return inhibition at 10 µM measured with CYP2C19 (Homo sapiens, UniProt P33261) given this compound: COc1cc2c(-c3cc(OC)c(OC)c(OC)c3)nccc2cc1O
output: -49

---

test system: liver microsomes (Mus musculus); test: Stability in mouse liver microsomes assessed as parent compound remaining at 2 uM measured after 40 mins in absence of cofactor; conditions: read-out: Stabilty
value_type: remaining at 40 min, 2 µM (%)
// return numeric value only (unit: %, not printed)

input: For the compound shown here, COc1cc2c(-c3cc(OC)c(OC)c(OC)c3)nccc2cc1O , give the reported remaining at 40 min, 2 µM.
output: 105

---

test: Toxicity in iv dosed Balb/c mouse; assay type: organism-based; conditions: in vivo
value_type: MTD (mg/kg)
// return numeric value only (unit: mg/kg, not printed)

input: For the compound shown here, COc1cc2c(-c3cc(OC)c(OC)c(OC)c3)nccc2cc1OP(=O)([O-])[O-].[Na+].[Na+] , give the reported MTD.
output: 50

---

assay: Stability in human liver microsomes assessed as parent compound remaining at 2 uM measured after 20 mins in presence of cofactor; format: ADME, Microsome; conditions: read-out: Stabilty
value_type: remaining at 20 min, 2 µM (%)
// return numeric value only (unit: %, not printed)

input: For the compound shown here, COc1cc2c(-c3cc(OC)c(OC)c(OC)c3)nccc2cc1O , give the reported remaining at 20 min, 2 µM.
output: 84

---

target: CYP2D6 (Homo sapiens, UniProt P10635); experiment: Inhibition of human CYP2D6 at 10 uM relative to control; format: ADME
Sequence (P10635 whole entry): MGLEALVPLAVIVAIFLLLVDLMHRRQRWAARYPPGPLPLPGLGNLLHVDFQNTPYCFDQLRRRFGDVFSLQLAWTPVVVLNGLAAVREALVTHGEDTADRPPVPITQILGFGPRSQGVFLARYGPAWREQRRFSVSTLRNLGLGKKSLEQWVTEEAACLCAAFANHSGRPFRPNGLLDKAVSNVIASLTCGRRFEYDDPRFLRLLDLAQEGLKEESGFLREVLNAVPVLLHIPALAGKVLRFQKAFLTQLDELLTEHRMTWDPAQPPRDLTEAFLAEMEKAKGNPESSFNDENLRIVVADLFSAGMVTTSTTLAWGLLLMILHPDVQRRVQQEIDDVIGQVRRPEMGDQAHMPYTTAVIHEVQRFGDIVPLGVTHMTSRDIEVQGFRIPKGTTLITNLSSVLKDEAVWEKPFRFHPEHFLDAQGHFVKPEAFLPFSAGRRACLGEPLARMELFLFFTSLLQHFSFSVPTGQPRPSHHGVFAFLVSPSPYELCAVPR
value_type: inhibition at 10 µM (%)
// return numeric value only (unit: %, not printed)

input: For the molecule shown here, COc1cc2c(-c3cc(OC)c(OC)c(OC)c3)nccc2cc1O , give the reported inhibition at 10 µM.
output: 19

---

biological target: hERG (KCNH2) (Homo sapiens, UniProt Q12809); assay: Inhibition of human ERG at 1 uM by fluorescence polarization assay relative to control
Sequence (Q12809 whole entry): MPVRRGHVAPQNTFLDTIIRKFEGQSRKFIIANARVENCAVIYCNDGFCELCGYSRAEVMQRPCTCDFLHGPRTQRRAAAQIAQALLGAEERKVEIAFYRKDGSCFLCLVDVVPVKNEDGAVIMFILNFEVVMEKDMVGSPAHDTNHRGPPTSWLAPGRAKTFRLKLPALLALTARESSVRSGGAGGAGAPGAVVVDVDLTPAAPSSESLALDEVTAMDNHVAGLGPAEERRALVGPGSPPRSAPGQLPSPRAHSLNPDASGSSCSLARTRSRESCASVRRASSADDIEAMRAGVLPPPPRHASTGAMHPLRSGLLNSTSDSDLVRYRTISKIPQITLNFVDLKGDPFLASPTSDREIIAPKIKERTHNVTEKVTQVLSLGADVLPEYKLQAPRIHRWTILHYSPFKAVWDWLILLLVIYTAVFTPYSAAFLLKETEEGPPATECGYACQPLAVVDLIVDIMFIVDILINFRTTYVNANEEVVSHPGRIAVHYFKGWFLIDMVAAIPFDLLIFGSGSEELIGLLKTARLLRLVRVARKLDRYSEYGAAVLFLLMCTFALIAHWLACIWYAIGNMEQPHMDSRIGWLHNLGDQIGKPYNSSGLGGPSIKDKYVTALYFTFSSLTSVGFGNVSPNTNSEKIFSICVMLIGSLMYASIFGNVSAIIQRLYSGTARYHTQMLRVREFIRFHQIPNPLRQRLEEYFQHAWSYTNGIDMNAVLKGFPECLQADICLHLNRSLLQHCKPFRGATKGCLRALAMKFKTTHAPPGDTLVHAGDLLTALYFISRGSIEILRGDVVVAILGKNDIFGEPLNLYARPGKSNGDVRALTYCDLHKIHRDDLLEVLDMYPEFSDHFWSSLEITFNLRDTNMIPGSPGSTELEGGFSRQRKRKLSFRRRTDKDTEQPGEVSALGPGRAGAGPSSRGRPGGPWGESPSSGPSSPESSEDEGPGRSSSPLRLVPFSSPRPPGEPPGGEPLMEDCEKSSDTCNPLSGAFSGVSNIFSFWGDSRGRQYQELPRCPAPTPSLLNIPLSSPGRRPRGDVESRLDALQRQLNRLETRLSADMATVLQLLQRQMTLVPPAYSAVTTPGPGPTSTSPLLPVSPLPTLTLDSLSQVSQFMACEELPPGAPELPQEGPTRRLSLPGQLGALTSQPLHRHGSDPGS
value_type: inhibition at 1 µM (%)
// return numeric value only (unit: %, not printed)

input: For the compound shown here, COc1cc2c(-c3cc(OC)c(OC)c(OC)c3)nccc2cc1O , give the reported inhibition at 1 µM.
output: -3

---

experiment: Stability in human liver microsomes assessed as parent compound remaining at 2 uM measured after 10 mins in presence of cofactor; type: ADME, Microsome; details: read-out: Stabilty
value_type: remaining at 10 min, 2 µM (%)
// return numeric value only (unit: %, not printed)

input: For the compound shown here, COc1cc2c(-c3cc(OC)c(OC)c(OC)c3)nccc2cc1O , give the reported remaining at 10 min, 2 µM.
output: 99
